# assayNotes: self-splicing fitness, log relative to wild type (ln ratio); higher = more splicing; Tetrahymena group I intron in knt gene, E. coli kanamycin selection, DiMSum; sequences stand for … in CUCUCU…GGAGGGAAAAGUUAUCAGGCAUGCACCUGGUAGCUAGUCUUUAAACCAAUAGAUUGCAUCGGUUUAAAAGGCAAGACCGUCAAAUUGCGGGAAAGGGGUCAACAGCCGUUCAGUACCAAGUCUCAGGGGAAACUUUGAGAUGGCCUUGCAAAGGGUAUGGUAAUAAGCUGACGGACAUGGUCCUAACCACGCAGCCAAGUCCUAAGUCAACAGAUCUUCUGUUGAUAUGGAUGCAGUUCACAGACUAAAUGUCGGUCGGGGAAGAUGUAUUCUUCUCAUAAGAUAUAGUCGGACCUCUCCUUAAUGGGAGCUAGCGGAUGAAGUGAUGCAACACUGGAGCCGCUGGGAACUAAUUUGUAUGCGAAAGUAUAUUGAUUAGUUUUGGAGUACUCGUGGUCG;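 further: selection with 25 µg/mL kanamycin versus none on LB agar overnight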
# statedConditions: 37 °C
# Lookup of reported self-splicing fitness (ln) keyed by entry

{"chainSequence": "GGCCAGCAAUAUUACGCCGG", "self-splicing fitness (ln)": -1.99}
{"chainSequence": "UACAAGCAAUAUUACGAUUU", "self-splicing fitness (ln)": -0.754}
{"chainSequence": "CACUAGCAAUAUUACGAAAU", "self-splicing fitness (ln)": -1.38}
{"chainSequence": "AGCCAGCAAUAUUACGCUUG", "self-splicing fitness (ln)": -1.58}
{"chainSequence": "CGUUAGCAAUAUUACGGUCA", "self-splicing fitness (ln)": -0.197}
{"chainSequence": "GGGAAGCAAUAUUACGCCCG", "self-splicing fitness (ln)": 0.0331}
{"chainSequence": "AUUUAGCAAUAUUACGGAUA", "self-splicing fitness (ln)": -1.53}
{"chainSequence": "CGCUAGCAAUAUUACGAAAA", "self-splicing fitness (ln)": -1.98}
{"chainSequence": "AGACAGCAAUAUUACGACGC", "self-splicing fitness (ln)": -0.726}
{"chainSequence": "CGCGAGCAAUAUUACGUCGA", "self-splicing fitness (ln)": -2.73}
{"chainSequence": "AUCUAGCAAUAUUACGGGGA", "self-splicing fitness (ln)": -1.03}
{"chainSequence": "ACCAAGCAAUAUUACGACUC", "self-splicing fitness (ln)": -0.459}
{"chainSequence": "GUGGAGCAAUAUUACGGCCU", "self-splicing fitness (ln)": -0.55}
{"chainSequence": "UGCGAGCAAUAUUACGUAGA", "self-splicing fitness (ln)": -0.382}
{"chainSequence": "GAACAGCAAUAUUACGACGU", "self-splicing fitness (ln)": 0.167}
{"chainSequence": "UUCGAGCAAUAUUACGCAGG", "self-splicing fitness (ln)": -1.82}
{"chainSequence": "AACGAGCAAUAUUACGUCGC", "self-splicing fitness (ln)": 1.3}
{"chainSequence": "ACAAAGCAAUAUUACGGAGU", "self-splicing fitness (ln)": -2.9}
{"chainSequence": "GGCUAGCAAUAUUACGCACG", "self-splicing fitness (ln)": -0.119}
{"chainSequence": "GCUUAGCAAUAUUACGCAAC", "self-splicing fitness (ln)": -0.318}
{"chainSequence": "GGUUAGCAAUAUUACGGUGU", "self-splicing fitness (ln)": -0.973}
{"chainSequence": "CUAUAGCAAUAUUACGAUCU", "self-splicing fitness (ln)": -1.91}
{"chainSequence": "CUCUAGCAAUAUUACGCAGA", "self-splicing fitness (ln)": -3.59}
{"chainSequence": "AUCAAGCAAUAUUACGUAUU", "self-splicing fitness (ln)": -1.5}
{"chainSequence": "GGCCAGCAAUAUUACGUGUG", "self-splicing fitness (ln)": -0.323}
{"chainSequence": "UCGCAGCAAUAUUACGUGCU", "self-splicing fitness (ln)": -2.15}
{"chainSequence": "UUGUAGCAAUAUUACGUUGC", "self-splicing fitness (ln)": -2.29}
{"chainSequence": "CGAUAGCAAUAUUACGCAUU", "self-splicing fitness (ln)": -1.3}
{"chainSequence": "GGUCAGCAAUAUUACGAAGG", "self-splicing fitness (ln)": -0.251}
{"chainSequence": "AAAGAGCAAUAUUACGUUCC", "self-splicing fitness (ln)": -2.49}
{"chainSequence": "UAGGAGCAAUAUUACGAGGC", "self-splicing fitness (ln)": -3}
{"chainSequence": "AUCCAGCAAUAUUACGCACC", "self-splicing fitness (ln)": 0.657}
{"chainSequence": "AACUAGCAAUAUUACGGCGG", "self-splicing fitness (ln)": -0.787}
{"chainSequence": "GAAGAGCAAUAUUACGACAC", "self-splicing fitness (ln)": 0.351}
